Target: Platelet-derived growth factor receptor (Homo sapiens, UniProt P09619+P16234)
Assay: Inhibition of Platelet-derived growth factor receptor at 1 uM
Assay type: protein-complex assay
observed_property: inhibition (%)
Give just the number in %; leave the unit off.

Below, 3 compounds whose answers are already recorded.
{"compound": "COc1cc2ncc(N[C@H]3CC[C@@H](O)[C@H](C)C3)nc2cc1OC", "observed_property": "inhibition", "unit_abbreviation": "%", "value_measured": 5}
{"compound": "COc1cc2ncc(NC3CCC(C(=O)N4CCN(C)CC4)CC3)nc2cc1OC (centres undefined)", "observed_property": "inhibition", "unit_abbreviation": "%", "value_measured": 10}
{"compound": "COc1cc2ncc(NC3CCC(C(=O)O)CC3)nc2cc1OC (centres undefined)", "observed_property": "inhibition", "unit_abbreviation": "%", "value_measured": 15}

Attention now turns to another entry.
The recorded inhibition for entry COc1cc2ncc(NC3CCCC(N)C3)nc2cc1OC (centres undefined) equals -9

---

Assay: % Bioavailability after 1 day of the drug administration in rats
Type: ADME, organism-based
Details: rat, in vivo
observed_property: bioavailability (%)
Give the quantity in %, number only.

bioavailability reading for COc1cc2ncc(N[C@H]3CC[C@H](O)CC3)nc2cc1OC : 82

---

Experiment: Bioavailability in rat after 1 day dosing
Assay type: ADME, organism-based
Details: in vivo
observed_property: bioavailability (%)
Give the value, in units of %, as a plain number.

{"compound": "COc1cc2ncc(NC3CCCCC3)nc2cc1OC", "value_measured": 17}

Shifting focus to the compound that follows.
The compound COc1cc2cc(-c3ccsc3)cnc2cc1OC showed bioavailability equal to 49

---

Target: Platelet-derived growth factor receptor (Homo sapiens, UniProt P09619+P16234)
Test: Inhibition of Platelet-derived growth factor receptor
# maps each entry to its pIC50
Keep in mind that pIC50 stands for -log10 of concentration in molar terms.

Some entries whose results are on file:
{"molecule": "COc1cc2ncc(N[C@@H]3CC4CC3C[C@H]4O)nc2cc1OC (some centres not stated)", "pIC50": 7.62}
{"molecule": "CNC(=O)C1CCC(Nc2cnc3cc(OC)c(OC)cc3n2)CC1 (configuration not stated)", "pIC50": 5.51}
{"molecule": "COc1cc2ncc(N[C@H]3CC[C@@H](C(=O)OC)CC3)nc2cc1OC", "pIC50": 7.55}
{"molecule": "COc1cc2ncc(N[C@H]3CC[C@H](C(=O)OC)CC3)nc2cc1OC", "pIC50": 6.46}
{"molecule": "COc1cc2ncc(N[C@@H]3CC[C@H](O)[C@@H](C)C3)nc2cc1OC", "pIC50": 7.74}

The observed pIC50 for COC(=O)C1CCC(Nc2cnc3cc(OC)c(OC)cc3n2)CC1 (configuration not stated) when tested with Platelet-derived growth factor receptor (Homo sapiens, UniProt P09619+P16234) stands at 7.31

Recorded pIC50 for COc1cc2ncc(NC3CCC(C(N)=O)CC3)nc2cc1OC (configuration not stated) on Platelet-derived growth factor receptor (Homo sapiens, UniProt P09619+P16234) was 6.03

---

Test: Bioavailability in rat after 4 day dosing
Type: ADME, organism-based
Conditions: in vivo
Each item that follows carries a reported bioavailability.
Could you give me the number in %? Just the number is fine.

{"compound": "COc1cc2ncc(NC3CCCCC3)nc2cc1OC", "observed_property": "bioavailability", "value_measured": 16}

Next, consider the following molecule.
Lab note: COc1cc2cc(-c3ccsc3)cnc2cc1OC gave bioavailability of 21

---

Molecular target: Tyrosine-protein kinase JAK2 (Homo sapiens, UniProt O60674)
Sequence (O60674 whole entry): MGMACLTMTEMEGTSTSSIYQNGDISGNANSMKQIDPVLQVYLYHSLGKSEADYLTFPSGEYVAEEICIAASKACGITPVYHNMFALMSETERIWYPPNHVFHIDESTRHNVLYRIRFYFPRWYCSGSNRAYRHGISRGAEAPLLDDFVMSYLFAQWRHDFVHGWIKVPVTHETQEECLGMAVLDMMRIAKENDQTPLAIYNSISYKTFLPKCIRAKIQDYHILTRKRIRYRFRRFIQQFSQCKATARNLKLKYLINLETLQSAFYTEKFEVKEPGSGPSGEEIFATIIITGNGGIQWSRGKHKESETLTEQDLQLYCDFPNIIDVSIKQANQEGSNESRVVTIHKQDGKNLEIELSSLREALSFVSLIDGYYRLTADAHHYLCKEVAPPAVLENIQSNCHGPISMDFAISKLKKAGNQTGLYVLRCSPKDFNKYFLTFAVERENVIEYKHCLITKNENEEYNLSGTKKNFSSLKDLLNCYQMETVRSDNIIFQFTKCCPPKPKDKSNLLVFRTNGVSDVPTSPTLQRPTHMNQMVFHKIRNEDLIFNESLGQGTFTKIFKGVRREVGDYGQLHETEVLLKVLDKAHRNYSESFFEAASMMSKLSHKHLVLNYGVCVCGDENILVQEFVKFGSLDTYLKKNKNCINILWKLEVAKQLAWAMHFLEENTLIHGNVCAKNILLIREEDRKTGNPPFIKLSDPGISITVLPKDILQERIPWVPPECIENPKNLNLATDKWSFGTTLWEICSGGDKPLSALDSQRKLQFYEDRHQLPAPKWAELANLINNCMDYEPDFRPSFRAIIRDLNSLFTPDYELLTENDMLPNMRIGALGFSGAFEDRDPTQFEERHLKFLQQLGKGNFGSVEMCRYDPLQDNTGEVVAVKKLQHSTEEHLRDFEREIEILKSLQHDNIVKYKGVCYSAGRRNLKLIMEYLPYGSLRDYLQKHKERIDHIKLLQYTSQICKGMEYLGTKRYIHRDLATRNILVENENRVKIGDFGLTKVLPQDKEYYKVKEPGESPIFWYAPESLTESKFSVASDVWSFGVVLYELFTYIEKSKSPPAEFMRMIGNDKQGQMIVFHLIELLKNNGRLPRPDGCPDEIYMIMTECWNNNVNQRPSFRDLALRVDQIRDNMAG
observed_property: IC50

Observed IC50 on Tyrosine-protein kinase JAK2 (Homo sapiens, UniProt O60674), entry COc1cc2ncc(N[C@H]3CC[C@H](O)CC3)nc2cc1OC , equals > 50 µM

---

Test: % Bioavailability after 4 day of the drug administration in rats
Assay type: ADME, organism-based
Conditions: rat, in vivo
observed_property: bioavailability (%)
# unit: % | format: bare number

bioavailability for COc1cc2ncc(N[C@H]3CC[C@H](O)CC3)nc2cc1OC is 72

Numbers sourced from ChEMBL document CHEMBL1136216.
